Overview of reported pIC50 across a group of compounds:
Tested on: malignant melanoma cells (SK-MEL-2 and MeWo)
Test: Viable cell counts, malignant cell lines taken together
Type: cell-based
Settings: Homo sapiens; from dose curves of cell proliferation; read-out: half maximal inhibitory concentration (IC50)
pIC50: −log10 of the molar value.

Asked: Look up pIC50 of "Nc1c(S(=O)(=O)O)cc2cc(S(=O)(=O)O)ccc2c1N" and report it.
Given back: ~5.60

Asked: Look up pIC50 of "CC(=O)C1=C(O)CCC1=O" and report it.
Given back: ~5.60
